System: MALME-3M melanoma
assayExplanation: NCI tumour cell line growth inhibition, 48 h
Each record here notes measured TGI.

Example entries and their recorded answers appear below.
| compound | propertyMeasured | observed |
| --- | --- | --- |
| COc1ccccc1/C=N/Nc1nnc2c3ccccc3c3ncccc3c2n1 | TGI | > 100 µM |
| O=C(O[C@H]1[C@@H]2C=CO[C@@H](OC3OC(CO)C(O)C(O)C3O)[C@@H]2[C@@]2(CO)O[C@@H]12)c1ccc(O)c(O)c1 (stereo not given in full) | TGI | > 100 µM |
| O=C1NC(=S)NC(=O)C1=CC1CC1 | TGI | > 100 µM |

## Input Recorded TGI of COc1ccc(CNCCCN2C(=O)c3ccc4c5c(ccc(c35)C2=O)C(=O)N(CCCNCc2ccc(OC)c(OC)c2OC)C4=O)c(OC)c1OC , please.
## Output 0.151 µM

## Input Recorded TGI of CC1=C[C@H]([C@H]2C=C(C)C(C(N)=O)=CN2Cc2c(Cl)cccc2Cl)N(Cc2c(Cl)cccc2Cl)C=C1C(N)=O , please.
## Output > 75 µM

====

Test system: OVCAR-3 ovarian
assayExplanation: NCI tumour cell line growth inhibition, 48 h
Where a SMILES comes first, the peptide text is derived from it. The star is where a group is joined. Cbz = O=C(OCc1ccccc1)*
propertyMeasured: TGI

Example entries and their recorded answers appear below.
| molecule | observed |
| --- | --- |
| COc1cc2c(/C=C3/C(=O)Nc4ccc(O)cc43)c(Cl)n(Cc3cc(OC)c(OC)c(OC)c3)c2cc1C | > 20.8 µM |
| O=C1OC(c2ccc(Cl)cc2)=N/C1=C\c1ccccc1 | > 100 µM |
| COc1cccc(C=O)c1[O-].COc1cccc(C=O)c1[O-].[Zn+2] | 92.6 µM |

## Input Recorded TGI of CC(C)C1=CC2=CC[C@@H]3[C@](C)(CCC[C@@]3(C)C(=O)O)[C@H]2CC1 , please.
## Output 72.4 µM

## Input Recorded TGI of COC(=O)C(CC(C)C)NC(=O)C(CCCN=C(N)N)NC(=O)OCc1ccccc1 (stereo not drawn) (Cbz-Arg-Leu-OMe; configuration not given here) , please.
## Output > 100 µM

## Input Recorded TGI of CCOC(=O)CNC(=O)OCc1ccccc1 , please.
## Output > 100 µM

## Input Recorded TGI of COc1c(C)c(OC)c(C(=O)CC(C)C)c(OC)c1C , please.
## Output > 100 µM

## Input Recorded TGI of COC(=O)CCC(=O)c1ccc2c(c1)CC1(C2)Cc2ccc(C(=O)CCC(=O)OC)cc2C1 , please.
## Output > 100 µM

## Input Recorded TGI of O=C(CC1(O)C(=O)Nc2ccc([N+](=O)[O-])cc21)c1ccncc1 (stereo unspecified) , please.
## Output 65 µM

## Input Recorded TGI of COc1ccc2nc3cc([N+](=O)[O-])ccc3c(Nc3ccc(S(=O)(=O)Nc4ncccn4)cc3)c2c1 , please.
## Output > 100 µM

## Input Recorded TGI of CCOc1cc(C2SCC(=O)N2c2ccc3c(c2)Oc2c(Cl)c4c(c(Cl)c2=N3)Oc2cc(N3C(=O)CSC3c3ccc(O)c(OCC)c3)ccc2N=4)ccc1O (stereo unspecified) , please.
## Output > 100 µM

## Input Recorded TGI of C1=CC=C2NCCc3cccc(c3)CCNC3=CC=CC=CC3=NCCCCCCN=C2C=C1 , please.
## Output 99 µM

## Input Recorded TGI of CC(=O)OC1=C2CC[C@@H]3C(CC[C@@]4(C)C3CC[C@@H]4OC(C)=O)[C@@]2(C)CC(C#N)C1=O (stereo partly specified) , please.
## Output 53.3 µM

## Input Recorded TGI of Cc1ccc2[nH]c(C(=O)NN3C(=O)C(C)SC34CCC(C)CC4)c(-c3ccccc3)c2c1 (stereo unspecified) , please.
## Output 27.3 µM

## Input Recorded TGI of COC(=O)/C(=N\NC(N)=O)C(C#N)c1ccccc1 (stereo unspecified) , please.
## Output > 100 µM

## Input Recorded TGI of Cc1cccc2c(NCCN(C)C)c3cccc(C(=O)NCCN(C)C)c3nc12 , please.
## Output 5.54 µM

## Input Recorded TGI of Cn1ccc(=NS(=O)(=O)c2ccccc2)cc1 , please.
## Output > 100 µM

## Input Recorded TGI of CCCCC(OC(=O)c1ccc(N)cc1)C(=O)Nc1nc(CC(=O)OCC)cs1 (stereo unspecified) , please.
## Output 82 µM
